# target: T1, human PACAP38 (human, not fully specified; C-terminal lysine is amidated; N-terminal or C-terminal biotin in the HTRF and PC-12 cell binding assays)
# T1 peptide: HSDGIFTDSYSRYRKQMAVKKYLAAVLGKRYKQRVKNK
# assay.protocol: cell-based or functional assay
Listing of entries alongside the reported IC50, 5 nM PACAP38-induced human VPAC1-R mediated cAMP increase.

INSERT INTO results (binder, measured_result) VALUES
  ('anti-PACAP antibody Ab6 (antibody, human IgG1, kappa, N297A, V domains shown, full-length rabbit/human chimeric antibody) VH: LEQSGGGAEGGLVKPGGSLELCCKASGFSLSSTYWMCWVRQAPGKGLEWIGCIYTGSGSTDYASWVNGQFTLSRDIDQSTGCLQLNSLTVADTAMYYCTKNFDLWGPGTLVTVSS VL: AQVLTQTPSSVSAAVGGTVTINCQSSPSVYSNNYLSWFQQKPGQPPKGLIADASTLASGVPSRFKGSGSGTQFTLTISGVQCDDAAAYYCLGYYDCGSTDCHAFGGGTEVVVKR', '0.797 nM'),
  ('anti-PACAP antibody Ab1.H (antibody, human IgG1, kappa, N297A, V domains shown, humanized form of Ab1, full length) VH: EVQLVESGGGLVQPGGSLRLSCAASGFTVSSAVMNWVRQAPGKGLEWIGSIVASGTTYYASSANGRFTISRDNSKNTLYLQMNSLRAEDTAVYYCARGGGEFFIWGQGTLVTVSS VL: DIQMTQSPSTLSASVGDRVTITCQSSESVYSNYLSWYQQKPGKAPKFLIYQASNLASGVPSRFSGSGSGTEFTLTISSLQPDDFATYYCAGGYSENIVGFGGGTKVEIKR', '1.02 nM');

Now, please, on to the next binder.
Reported IC50, 5 nM PACAP38-induced human VPAC1-R mediated cAMP increase for anti-PACAP antibody Ab1 (antibody, human IgG1, kappa, N297A, V domains shown, full-length rabbit/human chimeric antibody) VH: QSVEESGGRLVTPGTPLTLTCTVSGFSLSSAVMNWVRQAPGKGLEWIGSIVASGTTYYASWANGRFTISKTSSTTMDLKMTSPTTEDTATYFCARGGGEFFIWGPGTLVTVSS VL: DPVMTQTPSSTSAAVGGTVTISCQSSESVYSNYLSWYQQKPGQPPNFLIYQASNLASGVPSRFKGSGSGTQFTLTITDLECDDAATYYCAGGYSENIVGFGGGTEVVVKR was 0.665 nM
